The entries below are paired with their reported SH2 binding enrichment.
tested_target: SHP2-C SH2;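 note: peptide library displayed on the E. coli surface as eCPX fusions, selected cells deep-sequenced, score is each peptide's frequency after selection divided by its frequency in the input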
test_name: SH2 binding enrichment of the phosphorylated peptide, bacterial display (enrichment ratio); higher = better substrate or ligand; peptides without Tyr show the background
observed_property: SH2 binding enrichment

sequence_data="KKCTRYIDCDL [ASPA_Y64]" measured_value=0.83
sequence_data="QLQVFYATLDQ [MIPEP_Y579]" measured_value=5.62
sequence_data="ANAFIYDVQLP [L1CAM_Y420_V421D_YF]" measured_value=0.633
sequence_data="TFQFKYPEGSS [TGM4_Y440_E437Q_YF]" measured_value=0.896
sequence_data="SSREGYVRHHN [FAM83B_Y433_S435R]" measured_value=0.573
sequence_data="GVTLLYFGRFN [ADGRD1_Y85_YF]" measured_value=1.41
sequence_data="AIKSFYAALID [RYR1_Y2426_M2423K]" measured_value=1.5
sequence_data="KNKELYSDLFD [PDE10A_Y300]" measured_value=0.715
sequence_data="YHRQLYHKCTH [F12_Y58]" measured_value=1.22
sequence_data="PMDGEYFTLQI [TP53_Y327_L323M]" measured_value=0.407
sequence_data="NIKKEYTKMVQ [PMS2_Y181_A182T]" measured_value=0.456
sequence_data="FATAGYGSLEA [EPHA10_Y959_A956T]" measured_value=0.933
sequence_data="FPKAHYHWLVL [APTX_Y214_R213H_YF]" measured_value=1.7
sequence_data="NMSRIYSTTKV [ACE_Y151_A154T]" measured_value=1.06
sequence_data="SVNCTYSPALN [TP53_Y126_T123N]" measured_value=0.544
sequence_data="MSSLYYANALF [HOXB7_Y6_T9A]" measured_value=1.36
sequence_data="TDLAYYLVCKG [ASL_Y376_R379C]" measured_value=0.829
sequence_data="DEDEEYEFMNR [ERBB3_Y1197_YF]" measured_value=1.28
sequence_data="WFPANYVKLLN [ITSN1_Y1132_S1137N]" measured_value=2.22
sequence_data="YKIYLYTLNDN [FN1_Y1975]" measured_value=0.851
sequence_data="FADIAYNFRDG [PAH_Y166_H170D_YF]" measured_value=0.58
sequence_data="EASGIYVKSII [PATJ_Y396]" measured_value=0.674
sequence_data="PNQRRYVYYYS [PTEN_Y174_S170N]" measured_value=3.49
sequence_data="FVGGFYGGCNE [CTSC_Y352_YF]" measured_value=0.563
sequence_data="IYGASYVPFAA [RBM47_Y541]" measured_value=0.649
sequence_data="KRIETYFSKNY [PLP1_Y50_L46R]" measured_value=0.71
sequence_data="PKEEPYKMQEK [SLC5A3_Y565_Q566K]" measured_value=0.624
sequence_data="IPPRRYFRSGV [STAMBP_Y36]" measured_value=0.526
sequence_data="SNFRAYATEPQ [TNNI3_Y29_H34Q_YF]" measured_value=0.556
